- targetUnderTest: Dickkopf-related protein 1 (Homo sapiens)
- experimentSummary: small molecules binding DKK1 protein – biochemical, small-molecule microarray, 635 nm fluorescence scan, primary screen (AID 1106);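 also: score merges emission near 667 nm with signal to noise over three replicate slides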
- particulars: higher = more signal
Parameter class (string): assigned from measured composite z-score. Ranges: one (below -0.6), two (-0.6 to below 0.3), three (0.3 or more)

Reference set (3 entries):
molecule	cat
CCOC(=O)C[C@H]1[C@H](OC(=O)c2ccc(-c3ccccc3)cc2)[C@@H](NC(=O)c2ccccc2)c2cc(OCCCO)ccc2N1C(=O)c1ccc2ccccc2n1	two
COc1ccc(CCNC(=O)[C@@]2(c3ccc([N+](=O)[O-])cc3)CC(=O)N(CC34CC5CC(CC(C5)C3)C4)[C@@H]2c2ccc(CO)cc2I)cc1	three
CCCC(=O)N(CCc1c[nH]c2ccccc12)[C@@H]1CC(C(=O)NCCO)=C[C@H](Oc2c(I)cc(CO)cc2OC)[C@H]1O	three

Lookup: Please let me know in which category the item C=C(CCCC)/C(=C/C[C@@H](OC(C)=O)c1cccc(OCCO)c1)c1cnc2ccccc2c1 belongs.
Found: three

Lookup: Would you mind sorting CCCCCN1CC=CC23O[C@@H]4C=CCOC(=O)[C@@H]4[C@H]2C(=O)N(C(C)CO)[C@@H]3C1=O (some centres undefined) into the appropriate category?
Found: one

Lookup: Given COC(=O)[C@]1(CCC(=O)OC(C)(C)C)N=C(c2ccc(OCCCO)cc2)O[C@@H]1c1ccccc1 , name the class its composite z-score places it in.
Found: two

Lookup: Class label required: COc1ccc(C(O)C2C=CC3C(=O)N(C)C(=O)C3N2N(c2ccccc2)c2ccccc2)c2ccccc12 (centres undefined)
Found: three

Lookup: Record CC1CC/C=C\[C@H]2OC34C=CCN(c5ccc6ccccc6c5)C(=O)[C@H]3N(CCO)C(=O)[C@@H]4C2C(=O)O1 (some centres undefined) — which class?
Found: one

Lookup: In plain terms, what class is Cc1ccc(/C=C/C=O)cc1 ?
Found: two

Lookup: Please classify: CC(C)[Si](C#CCCCC#N)(O[C@H](c1ccccc1)c1cn(Cc2cccc(Cl)c2)nn1)C(C)C
Found: three

###

- Tested on: glycogen synthase kinase-3 (GSK3A per assay name; protocol says GSK3B)
- experimentSummary: compounds binding glycogen synthase kinase-3 – biochemical, small-molecule microarray, 635 nm fluorescence, GSK3A, primary screen (AID 1103); also: the record names both GSK3A and GSK3B
- particulars: fluorescence 635 nm, higher = more signal
resultType: composite z-score
API doc: respond with a numeric literal and nothing else, no unit.

Record excerpt, results attached:
molecularString	reported
O=C(NCc1ccccc1)[C@@H]1c2ccccc2C(=O)N(C2Cc3ccccc3C2)[C@H]1c1ccc(CO)cc1	0.737
CCOC(=O)C[C@H]1[C@H](OC(=O)c2ccc(C(=O)c3ccccc3)cc2)[C@@H](NC(=O)Cc2ccc(OC)cc2)c2cc(OCCCO)ccc2N1C(=O)c1ccc2ccccc2n1	0.392
O=C1O[C@@H](c2ccccc2)[C@@H](c2ccccc2)N2[C@@H](c3ccc(OCCO)cc3)[C@]3(C(=O)Nc4ccc(C#CC5=CCCCC5)cc43)[C@@H](C(=O)N3CCCCCCC3)[C@H]12	1.33

Lookup: Looking for the measured composite z-score of NC(=O)[C@@H]1[C@H]2C(=O)O[C@H](c3ccccc3)[C@H](c3ccccc3)N2[C@H](c2ccc(O)cc2)[C@@]12C(=O)Nc1ccc(C#CC3=CCCCC3)cc12 , can you help?
Found: 0.439

###

- targetUnderTest: Alpha-bungarotoxin (Bungarus multicinctus) (UniProt P60615)
- Sequence (P60615 whole entry, looked up): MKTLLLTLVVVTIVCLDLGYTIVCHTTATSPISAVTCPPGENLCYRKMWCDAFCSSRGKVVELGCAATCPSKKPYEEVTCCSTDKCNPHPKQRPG
- experimentSummary: compounds binding labelled alpha-BTX control protein – biochemical, small-molecule microarray, Alexa647 label, 635/667 nm fluorescence, artefact control for SMM control protein annotation, profiling panel (AID 1117)
- particulars: alpha-BTX-A647 binding fluorescence, higher = more signal
Some compounds, each annotated with its measured composite z-score.
The reply should be a number, written without any unit.

Please review the following examples before continuing.
compound	reported
[N-]=[N+]=Nc1ccccc1C[C@@]1(C(=O)N2CCCCC2)N=C(c2ccc(OCCCO)cc2)O[C@@H]1c1ccccc1	1.07
COc1ccc([Si](C)(C)[C@H]2[C@H](CCn3cc([C@H](O)c4ccccc4)nn3)O[C@@]3(C(=O)N(C)c4ccccc43)[C@@H]2C)cc1	-0.909
COc1cc2c(cc1O)C(c1cccs1)N(Cc1cccc(OC(F)(F)F)c1)CC2 (centres undefined)	0.422

Now look at this one.
Lookup: Form field: reported composite z-score of CCOC(=O)C[C@H]1[C@H](OC(=O)c2ccc(-c3ccccc3)cc2)[C@@H](NC(=O)c2ccccc2)c2cc(OCCCO)ccc2N1C(=O)c1ccc2ccccc2n1
Found: 0.552

###

- experimentSummary: probe aNog binding to arrayed compounds – biochemical, biotinylated probe, 635/667 nm fluorescence, primary screen (AID 1115);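 also: probe is biotinylated aNog protein used at 0.15 µg/mL for 1 h at 4 C; z-score combines 667 nm fluorescence of each spot with its signal to noise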
- particulars: small-molecule microarray, higher = more signal
Each entry gets Not fulfilled if its composite z-score stays under -0.02, and Fulfilled if its composite z-score is -0.02 or above.

compound	cat
C=CC[C@]1(C(=O)NCc2ccccc2)N=C(c2ccc(OCCCO)cc2)O[C@H]1c1ccccc1CN=[N+]=[N-]	Not fulfilled

Lookup: Hi, just wondering whether COc1ccc(C(O)C2C=CC3C(=O)N(C)C(=O)C3N2N(c2ccccc2)c2ccccc2)c2ccccc12 (stereo unspecified) shows composite z-score of -0.02 or higher.
Found: Fulfilled

Lookup: Kindly determine if composite z-score recorded for COc1ccc([Si](C)(C)[C@@H]2[C@@H](CCn3cc([C@H](O)c4ccccc4)nn3)O[C@]3(C(=O)N(Cc4cccc(N5CCC5=O)c4)c4ccccc43)[C@H]2C)cc1 is above or exactly -0.02.
Found: Not fulfilled

###

Recorded composite Z-score values for a group of compounds are listed next.
- experimentSummary: probe aXIP binding to arrayed compounds – biochemical, NeuroSMM set, 635/667 nm fluorescence, primary screen (AID 1119);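 also: probe is the protein aXip251-270 applied at 1 µg/mL to compound-printed slides; binding of probe to printed compounds measured as 667 nm fluorescence plus signal to noise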
- particulars: small-molecule microarray, higher = more signal, called active from +8 up or from −8 down
Please respond with just the number, no unit label.

Example entries and their recorded answers appear below.
compound	composite Z-score
CCCC[C@@H]1C[C@H]1[C@@H](NC(=O)c1cccnc1)c1ccc(Cl)cc1	-0.29
Cc1ccc(S[C@]2(C(=O)O)CC(=O)N(C(C)C)[C@@H]2c2ccc(CO)cc2)cc1	0.264
COc1ccccc1CN1C(=O)c2ccccc2[C@@H](C(=O)NCc2ccccc2)[C@@H]1c1ccc(CO)cc1	-0.549
COc1ccc([Si](C)(C)[C@H]2[C@H](CC(=O)N3CCC[C@H]3CO)O[C@@]3(C(=O)N(Cc4cccc(N5CCOC5=O)c4)c4ccccc43)[C@@H]2C)cc1	-0.0054
COc1ccc([Si](C)(C)[C@@H]2[C@@H](CCn3cc(CCO)nn3)O[C@]3(C(=O)N(Cc4cccc(N5C(=O)c6cccc7cccc5c67)c4)c4ccccc43)[C@H]2C)cc1	0.478

Lookup: Sample COc1ccc([C@H]2C[C@H]3C(Br)=C[C@@]2(CO)C(=O)[C@]32CO2)cc1 — what was its composite Z-score?
Found: -0.0805

Lookup: For the compound shown here, CCN(CC)c1ccc(N2CC=CC34O[C@@H]5/C=C\CCC(C)OC(=O)C5[C@H]3C(=O)N(CCCCCO)[C@@H]4C2=O)cc1 (some centres undefined) , give the reported composite Z-score.
Found: -0.4

Lookup: Query (compound): O=C1NC(=O)C2C1C=CC(C(O)c1ccc(I)cc1)N2Nc1ccc(Cl)cc1Cl (centres undefined) ; field requested: composite Z-score
Found: -0.234

Lookup: Requested field: composite Z-score. Item: CCOC(=O)C[C@H]1[C@H](OC(=O)c2ccc(-c3ccccc3)cc2)[C@@H](NC(=O)c2ccccc2)c2cc(OCCCO)ccc2N1C(=O)Cc1ccc(OC)cc1
Found: -0.316

Lookup: # query: composite Z-score of entry NCCCCCNC(=O)[C@H]1C[C@H]2C(=O)N[C@@H](Cc3ccccc3)C(=O)N2[C@H]1c1cccc(OCCO)c1
Found: 1.11

Lookup: Would you mind telling me what composite Z-score value was observed for CCOc1cc(C(O)C2C=CC3C(=O)N(c4ccccc4)C(=O)C3N2Nc2ccc(C(C)C)cc2)ccc1O (centres undefined) ?
Found: 0.203

Lookup: # query: composite Z-score of entry CC(C)(C)OC(=O)CC[C@@]1(C(=O)N2CCCCC2)N=C(c2ccc(OCCCO)cc2)O[C@@H]1c1ccccc1
Found: -0.317

Lookup: What value of composite Z-score has been reported for the following compound? O=C1O[C@H](c2ccccc2)[C@H](c2ccccc2)N2[C@H]1[C@@H](C(=O)N1CCN(c3ncccn3)CC1)[C@]1(C(=O)Nc3ccc(C#CC4=CCCCC4)cc31)[C@H]2c1ccccc1OCCO
Found: -0.0798

Lookup: Returns the measured composite Z-score for the input compound. Input: C=CCNC(=O)[C@@H]1[C@H]2C(=O)O[C@H](c3ccccc3)[C@H](c3ccccc3)N2[C@H](c2ccc(OCCO)cc2)[C@@]12C(=O)N(C(=O)OCCOC)c1ccc(C#CCNC(N)=O)cc12
Found: 0.0253
